# experimental.protocol: Clearance in dog at 0.5 mg/kg, iv and 0.2 mg/kg, po
# Format: ADME, organism-based, Canis lupus familiaris
# recorded.conditions: in vivo
recorded.endpoint: clearance (mL/min/kg)
Kindly answer with a numeric value in mL/min/kg, unit omitted.

Sample answers from the record:
• NC(=O)c1cc(C(=O)N2CCc3cc(N4CCCCC4=O)ccc32)n(-c2ccc3onc(N)c3c2)n1 = 3.67
• NC(=O)c1cc(C(=O)N2CCc3cc(-c4ccccc4CN4CCCC4)ccc32)n(-c2ccc3onc(N)c3c2)n1 = 59.5
• Nc1noc2ccc(-n3nc(C(F)(F)F)cc3C(=O)N3CCc4cc(-c5ccccc5CN5CCCC5)ccc43)cc12 = 123
• Nc1noc2ccc(-n3nc(C(F)(F)F)cc3C(=O)N3CCc4cc(-c5ccccc5S(N)(=O)=O)ccc43)cc12 = 10.5

input: Entry under review: CN(C)Cc1nccn1-c1ccc(NC(=O)c2cc(C(F)(F)F)nn2-c2ccc3onc(N)c3c2)c(F)c1 . Reported clearance?
output: 18.3

###

# experimental.protocol: Oral bioavailability in dog at 0.2 mg/kg
# Assay type: ADME, organism-based, Canis lupus familiaris
# recorded.conditions: in vivo
recorded.endpoint: bioavailability (%)
Kindly answer with a numeric value in %, unit omitted.

- NC(=O)c1cc(C(=O)N2CCc3cc(N4CCCCC4=O)ccc32)n(-c2ccc3onc(N)c3c2)n1: 6

Next:
input: Entry under review: Nc1noc2ccc(-n3nc(C(F)(F)F)cc3C(=O)N3CCc4cc(-c5ccccc5S(N)(=O)=O)ccc43)cc12 . Reported bioavailability?
output: 66

###

So I've got pKi readings for UniProt:P00742, take a look.
Sequence (P00742 41-179 limits assumed): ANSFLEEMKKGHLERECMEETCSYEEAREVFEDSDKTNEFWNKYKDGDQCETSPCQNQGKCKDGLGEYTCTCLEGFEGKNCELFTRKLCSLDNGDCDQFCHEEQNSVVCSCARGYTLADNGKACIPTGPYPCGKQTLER
Sequence (P00742 235-488 limits assumed): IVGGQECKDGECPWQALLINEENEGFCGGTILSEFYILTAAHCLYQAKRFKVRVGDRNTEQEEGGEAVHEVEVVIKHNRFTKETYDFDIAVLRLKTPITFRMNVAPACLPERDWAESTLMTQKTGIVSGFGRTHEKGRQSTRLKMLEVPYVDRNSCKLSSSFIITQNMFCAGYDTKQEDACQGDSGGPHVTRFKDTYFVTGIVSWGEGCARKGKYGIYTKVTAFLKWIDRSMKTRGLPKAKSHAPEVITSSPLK
# pKi = -log10(concentration in molar units)

* NC(=O)c1cc(C(=O)N2CCc3cc(N4CCCCC4=O)ccc32)n(-c2ccc3onc(N)c3c2)n1 | 8.62
* CS(=O)(=O)c1ccccc1-c1ccc2c(c1)C(O)CCN2C(=O)c1cc(C(F)(F)F)nn1-c1ccc2onc(N)c2c1 (racemic) | 5.85
* CN(C)Cc1ccccc1-c1ccc2c(c1)CCN2C(=O)c1cc(C(F)(F)F)nn1-c1ccc2onc(N)c2c1 | 7.72
* CS(=O)(=O)c1ccccc1-c1ccc2c(c1)CCN2C(=O)c1cc(C(F)(F)F)nn1-c1ccc2onc(N)c2c1 | 8.82
* NC(=O)c1cc(C(=O)N2CCc3cc(-n4ccccc4=O)ccc32)n(-c2ccc3onc(N)c3c2)n1 | 9.70

input: Entry under review: CS(=O)(=O)c1ccccc1-c1ccc2c(c1)CCN2C(=O)c1cc(C(N)=O)nn1-c1ccc2onc(N)c2c1 . Reported pKi?
output: 9.09

input: Entry under review: NC(=O)c1cc(C(=O)N2CCc3cc(N4CCCCCC4=O)ccc32)n(-c2ccc3onc(N)c3c2)n1 . Reported pKi?
output: 7.82

input: Entry under review: CC(=O)N(C)Cc1nccn1-c1ccc2c(c1)CCN2C(=O)c1cc(C(N)=O)nn1-c1ccc2onc(N)c2c1 . Reported pKi?
output: 8.32

###

# experimental.protocol: Apparent permeability across Caco-2 cells
# Format: ADME, cell-based
# recorded.conditions: human
recorded.endpoint: Papp (×10⁻⁶ cm/s)
Kindly answer with a numeric value in ×10⁻⁶ cm/s, unit omitted.

Sample answers from the record:
* CN(C)Cc1ccccc1-c1ccc2c(c1)CCN2C(=O)c1cc(C(N)=O)nn1-c1ccc2onc(N)c2c1 | 0.3
* NC(=O)c1cc(C(=O)N2CCc3cc(-n4ccccc4=O)ccc32)n(-c2ccc3onc(N)c3c2)n1 | 0.1
* NC(=O)c1cc(C(=O)N2CCc3cc(N4CCCCC4=O)ccc32)n(-c2ccc3onc(N)c3c2)n1 | 0.1

input: Entry under review: NC(=O)c1cc(C(=O)N2CCc3cc(-c4ccccc4CN4CCCC4)ccc32)n(-c2ccc3onc(N)c3c2)n1 . Reported Papp?
output: 0.7

###

# target.under.test: Trypsin (Homo sapiens, UniProt P07477+P07478+P35030)
# experimental.protocol: Inhibition of human trypsin
# Assay type: protein assay
recorded.endpoint: Ki

- CS(=O)(=O)c1ccccc1-c1ccc2c(c1)C(O)CCN2C(=O)c1cc(C(F)(F)F)nn1-c1ccc2onc(N)c2c1 (racemic): > 4.2 µM
- Nc1noc2ccc(-n3nc(C(F)(F)F)cc3C(=O)N3CCCCc4cc(-c5ccccc5S(N)(=O)=O)ccc43)cc12: > 4.2 µM
- CS(=O)(=O)c1ccccc1-c1ccc(NC(=O)c2cc(C(F)(F)F)nn2-c2ccc3onc(N)c3c2)c(F)c1: > 5.2 µM

input: Entry under review: CS(=O)(=O)c1ccccc1-c1ccc2c(c1)C(=O)CCN2C(=O)c1cc(C(F)(F)F)nn1-c1ccc2onc(N)c2c1 . Reported Ki?
output: > 4.2 µM

input: Entry under review: CN(C)Cc1ccccc1-c1ccc2c(c1)CCN2C(=O)c1cc(C(N)=O)nn1-c1ccc2onc(N)c2c1 . Reported Ki?
output: > 20 µM

input: Entry under review: CS(=O)(=O)c1ccccc1-c1ccc2c(c1)CCCN2C(=O)c1cc(C(F)(F)F)nn1-c1ccc2onc(N)c2c1 . Reported Ki?
output: > 4.2 µM

input: Entry under review: CS(=O)(=O)c1ccccc1-c1ccc2c(c1)CCN2C(=O)c1cc(C(F)(F)F)nn1-c1ccc2onc(N)c2c1 . Reported Ki?
output: > 2.5 µM

input: Entry under review: Nc1noc2ccc(-n3nc(C(F)(F)F)cc3C(=O)N3CCc4cc(-c5ccccc5CN5CCCC5)ccc43)cc12 . Reported Ki?
output: > 40 µM

input: Entry under review: Nc1noc2ccc(-n3nc(C(F)(F)F)cc3C(=O)N3CCc4cc(-c5ccccc5S(N)(=O)=O)ccc43)cc12 . Reported Ki?
output: > 2.5 µM

###

Vd reference
# experimental.protocol: Volume of distribution at steady state in dog at 0.5 mg/kg, iv and 0.2 mg/kg, po
# Type: ADME, organism-based, Canis lupus familiaris
# recorded.conditions: in vivo, read-out: Vdss
Kindly answer with a numeric value in L/kg, unit omitted.

* Nc1noc2ccc(-n3nc(C(F)(F)F)cc3C(=O)N3CCc4cc(-c5ccccc5CN5CCCC5)ccc43)cc12 | 20
* Nc1noc2ccc(-n3nc(C(F)(F)F)cc3C(=O)N3CCc4cc(-c5ccccc5S(N)(=O)=O)ccc43)cc12 | 2
* NC(=O)c1cc(C(=O)N2CCc3cc(N4CCCCC4=O)ccc32)n(-c2ccc3onc(N)c3c2)n1 | 0.2

Next:
input: Entry under review: NC(=O)c1cc(C(=O)N2CCc3cc(-c4ccccc4CN4CCCC4)ccc32)n(-c2ccc3onc(N)c3c2)n1 . Reported Vd?
output: 6.2

###

So I've got Ki readings for Prothrombin (Homo sapiens, UniProt P00734), take a look.

Sample answers from the record:
• CS(=O)(=O)c1ccccc1-c1ccc2c(c1)OCCN2C(=O)c1cc(C(F)(F)F)nn1-c1ccc2onc(N)c2c1 = > 21 µM
• CS(=O)(=O)c1ccccc1-c1ccc2c(c1)CCN2C(=O)c1cc(C(F)(F)F)nn1-c1ccc2onc(N)c2c1 = > 21 µM
• CS(=O)(=O)c1ccccc1-c1ccc2c(c1)C(=O)CCN2C(=O)c1cc(C(F)(F)F)nn1-c1ccc2onc(N)c2c1 = > 21 µM

input: Write down the reported Ki of CS(=O)(=O)c1ccccc1-c1ccc2c(c1)CCCN2C(=O)c1cc(C(F)(F)F)nn1-c1ccc2onc(N)c2c1 , test system: Prothrombin (Homo sapiens, UniProt P00734).
output: > 6.3 µM

input: Write down the reported Ki of Nc1noc2ccc(-n3nc(C(F)(F)F)cc3C(=O)N3CCc4cc(-c5ccccc5CN5CCCC5)ccc43)cc12 , test system: Prothrombin (Homo sapiens, UniProt P00734).
output: 15 µM

Data provenance: ChEMBL document CHEMBL1140556
